Data provenance: PubChem BioAssay AID1963836

tested on: 857933-349-R-J2-PDC complex spheroid viability; assay: Anticancer human tumor 857933-349-R-J2-PDC patient-derived colon adenocarcinoma cell line growth inhibition [POLQ]; settings: second compound 1 µM; first compound 0.0316 µM; stronger effect = lower value;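 also: spheroids exposed to compounds for seven days before readout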
Examples of compounds with documented viability, T/C follow.
# output: bare number, implied unit %

Some compounds with recorded viability, T/C:
CNCc1ccc(-c2[nH]c3cc(F)cc4c3c2CCNC4=O)cc1 + Cc1cccc(N(C)C(=O)C2C(O)CCN2c2nc(C)cc(C(F)(F)F)c2C#N)c1	120
C=CCn1c(=O)c2cnc(Nc3ccc(N4CCN(C)CC4)cc3)nc2n1-c1cccc(C(C)(C)O)n1 + COC1C(OC(N)=O)C(O)C(Oc2ccc3c(O)c(NC(=O)c4ccc(O)c(CC=C(C)C)c4)c(=O)oc3c2C)OC1(C)C	88.7
C#Cc1c(F)ccc2cc(O)cc(-c3ncc4c(N5CC6CCC(C5)N6)nc(OCC56CCCN5CC(F)C6)nc4c3F)c12 (stereo not given) + Nc1ccc(C#CCN(C(=O)Cc2ncc(C(F)(F)F)cc2C(F)(F)F)c2ccc(F)cc2)nn1	104
O=C(c1cc(Cc2n[nH]c(=O)c3ccccc23)ccc1F)N1CCN(C(=O)C2CC2)CC1 + Nc1ccc(C#CCN(C(=O)Cc2ncc(C(F)(F)F)cc2C(F)(F)F)c2ccc(F)cc2)nn1	104

# input Entry C#Cc1c(F)ccc2cc(O)cc(-c3ncc4c(N5CC6CCC(C5)N6)nc(OCC56CCCN5CC(F)C6)nc4c3F)c12 (stereo not given) + COC1C(OC(N)=O)C(O)C(Oc2ccc3c(O)c(NC(=O)c4ccc(O)c(CC=C(C)C)c4)c(=O)oc3c2C)OC1(C)C : reported viability, T/C = ?
# output 114

# input // repeat for C=CCn1c(=O)c2cnc(Nc3ccc(N4CCN(C)CC4)cc3)nc2n1-c1cccc(C(C)(C)O)n1 + Nc1ccc(C#CCN(C(=O)Cc2ncc(C(F)(F)F)cc2C(F)(F)F)c2ccc(F)cc2)nn1 and report
# output 90.6

# input // repeat for CCc1c2c(nc3ccc(O)cc13)-c1cc3c(c(=O)n1C2)COC(=O)[C@]3(O)CC + Cc1cccc(N(C)C(=O)C2C(O)CCN2c2nc(C)cc(C(F)(F)F)c2C#N)c1 and report
# output 30.8

# input // repeat for O=C(c1cc(Cc2n[nH]c(=O)c3ccccc23)ccc1F)N1CCN(C(=O)C2CC2)CC1 + Cc1cccc(N(C)C(=O)C2C(O)CCN2c2nc(C)cc(C(F)(F)F)c2C#N)c1 and report
# output 84.7

# input // repeat for CCc1cc2c(N3CCc4c(cc(Cn5ccnc5)cc4-c4cn(C)nc4C(F)(F)F)C3=O)ccnc2c(OC)n1 + Nc1ccc(C#CCN(C(=O)Cc2ncc(C(F)(F)F)cc2C(F)(F)F)c2ccc(F)cc2)nn1 and report
# output 97.6

# input // repeat for Cn1ncnc1[C@H]1c2n[nH]c(=O)c3cc(F)cc(c23)N[C@@H]1c1ccc(F)cc1 + Cc1cccc(N(C)C(=O)C2C(O)CCN2c2nc(C)cc(C(F)(F)F)c2C#N)c1 and report
# output 103
